All figures here come from ChEMBL document CHEMBL2016572.

In this section, each of the compounds is paired with its reported log10(IC50).
# test-system: UniProt:Q9UBN7
# experiment-notes: Inhibition of human recombinant HDAC6 using RHKKAc peptide as substrate incubated for 5 to mins prior to substrate addition measured after 2 hrs
Recorded IC50 (log10, nM)

COc1cccc(CN2CCc3c(c4ccccc4n3Cc3ccc(C(=O)NO)cc3)C2)c1 0.47
CC(C)N1CCc2c(c3ccccc3n2Cc2ccc(C(=O)NO)cc2)C1 0.95

For O=C(NO)c1ccc(Cn2c3c(c4ccccc42)CNCC3)cc1 , write its log10(IC50).
0.82

State, in one line, measured log10(IC50) of C=CCN1CCc2c(c3ccccc3n2Cc2ccc(C(=O)NO)cc2)C1
-0.01

Please supply the value of reported log10(IC50) for the item NC(=O)CN1CCc2c(c3ccccc3n2Cc2ccc(C(=O)NO)cc2)C1
-0.10

Give the measured log10(IC50) for CN1CCc2c(c3cc(Cl)ccc3n2Cc2ccc(C(=O)NO)cc2)C1
0.01

###

# test-system: Protein deacetylase HDAC6 (Homo sapiens, UniProt Q9UBN7)
# Sequence (Q9UBN7 whole entry): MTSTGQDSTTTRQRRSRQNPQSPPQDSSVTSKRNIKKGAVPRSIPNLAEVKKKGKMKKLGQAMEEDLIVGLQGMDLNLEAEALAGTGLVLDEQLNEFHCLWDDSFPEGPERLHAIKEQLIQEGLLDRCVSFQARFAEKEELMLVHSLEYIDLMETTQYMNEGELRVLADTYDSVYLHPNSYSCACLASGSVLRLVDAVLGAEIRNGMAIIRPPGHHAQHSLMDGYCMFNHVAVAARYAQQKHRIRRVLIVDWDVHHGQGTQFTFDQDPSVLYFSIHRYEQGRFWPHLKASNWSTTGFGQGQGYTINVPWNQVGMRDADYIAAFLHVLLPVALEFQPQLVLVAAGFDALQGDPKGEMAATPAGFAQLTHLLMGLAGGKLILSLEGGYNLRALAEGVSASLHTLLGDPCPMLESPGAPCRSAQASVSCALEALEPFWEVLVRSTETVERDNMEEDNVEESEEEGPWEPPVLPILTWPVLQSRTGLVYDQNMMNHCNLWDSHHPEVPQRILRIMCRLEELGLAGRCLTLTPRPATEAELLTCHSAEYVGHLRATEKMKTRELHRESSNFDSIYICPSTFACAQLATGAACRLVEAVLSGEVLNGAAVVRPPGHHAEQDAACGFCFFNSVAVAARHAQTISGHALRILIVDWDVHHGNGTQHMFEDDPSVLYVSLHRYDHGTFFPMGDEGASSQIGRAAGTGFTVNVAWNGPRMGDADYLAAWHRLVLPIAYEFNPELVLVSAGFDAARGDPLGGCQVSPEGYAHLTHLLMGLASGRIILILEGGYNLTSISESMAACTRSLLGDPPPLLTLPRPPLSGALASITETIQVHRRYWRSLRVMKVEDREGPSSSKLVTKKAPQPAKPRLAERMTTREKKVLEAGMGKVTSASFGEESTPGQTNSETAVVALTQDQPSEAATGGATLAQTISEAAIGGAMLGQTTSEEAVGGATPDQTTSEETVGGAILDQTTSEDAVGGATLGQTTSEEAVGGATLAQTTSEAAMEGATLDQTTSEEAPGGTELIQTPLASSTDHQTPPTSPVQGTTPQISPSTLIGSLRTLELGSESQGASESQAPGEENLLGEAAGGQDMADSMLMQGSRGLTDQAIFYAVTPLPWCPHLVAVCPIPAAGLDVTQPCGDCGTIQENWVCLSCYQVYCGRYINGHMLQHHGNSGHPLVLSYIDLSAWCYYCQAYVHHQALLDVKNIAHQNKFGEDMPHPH
# experiment-notes: Inhibition of human recombinant HDAC6 using RHKKAc peptide as substrate incubated for 5 to mins prior to substrate addition measured after 2 hrs
Listed next: entries and their corresponding log10 of IC50.
In plain terms, each number is the log10 of measured IC50 in nM.

For the compound CC(C)(C)OC(=O)N1CCc2c(c3ccccc3n2Cc2ccc(C(=O)NO)cc2)C1 , give its reported log10 of IC50.
0.35

For the compound NC(=O)CCN1CCc2c(c3ccccc3n2Cc2ccc(C(=O)NO)cc2)C1 , give its measured log10 of IC50 value.
-0.34

Read off the recorded log10 of IC50 for O=C(NO)c1ccc(Cn2c3c(c4ccccc42)CCN(Cc2ccccc2)C3)cc1
-0.06

Answer with reported log10 of IC50 of O=C(NO)c1ccc(Cn2c3c(c4ccccc42)CN(Cc2ccncc2)CC3)cc1
-0.24

Give reported log10 of IC50 value for O=C(NO)c1ccc(Cn2c3c(c4ccccc42)CN(Cc2ccccc2)CC3)cc1
0.16

Supply recorded log10 of IC50 for Cc1cc(C)c2c3c(n(Cc4ccc(C(=O)NO)cc4)c2c1)CCN(C)C3 here.
1.58

###

# Species: Homo sapiens
# experiment-notes: Selectivity ratio of IC50 for human recombinant HDAC1 to IC50 for human recombinant HDAC6
Mark 1 only for Ratio IC50 values smaller than 2000; exact matches and larger values are -1.

Find out if reported Ratio IC50 for CCN1CCc2c(c3ccccc3n2Cc2ccc(C(=O)NO)cc2)C1 is less than 2000
-1

Does this compound meet the criterion Ratio IC50 < 2000? Cc1cc(C)c2c3c(n(Cc4ccc(C(=O)NO)cc4)c2c1)CCN(C)C3
1

For this compound, is Ratio IC50 lower than 2000? COc1cccc(CN2CCc3c(c4ccccc4n3Cc3ccc(C(=O)NO)cc3)C2)c1
1

###

Listed below: IC50 values for each entry.
# test-system: Histone deacetylase 1 (Homo sapiens)
# Sequence (Q13547 whole entry): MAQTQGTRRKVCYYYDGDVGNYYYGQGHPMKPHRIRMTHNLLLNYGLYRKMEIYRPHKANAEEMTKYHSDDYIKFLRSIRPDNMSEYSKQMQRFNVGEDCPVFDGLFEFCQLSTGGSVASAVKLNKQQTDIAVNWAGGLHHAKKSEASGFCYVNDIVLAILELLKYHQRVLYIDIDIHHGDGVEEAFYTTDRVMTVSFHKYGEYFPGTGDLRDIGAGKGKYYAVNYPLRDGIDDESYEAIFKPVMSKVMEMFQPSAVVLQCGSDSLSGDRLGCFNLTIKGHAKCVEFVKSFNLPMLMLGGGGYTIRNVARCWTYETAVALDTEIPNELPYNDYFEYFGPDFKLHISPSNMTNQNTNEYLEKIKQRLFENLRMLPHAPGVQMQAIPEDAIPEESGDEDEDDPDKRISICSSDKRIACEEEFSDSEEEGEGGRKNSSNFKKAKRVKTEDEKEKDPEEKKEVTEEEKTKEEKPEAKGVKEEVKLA
# experiment-notes: Inhibition of human recombinant HDAC1 using RHKKAc peptide as substrate incubated for 5 to mins prior to substrate addition measured after 2 hrs
Supply the numeric figure in µM, leaving out any unit text.

Cc1cccc2c3c(n(Cc4ccc(C(=O)NO)cc4)c12)CCN(C)C3 22.1
COc1ccc(CN2CCc3c(c4ccccc4n3Cc3ccc(C(=O)NO)cc3)C2)cc1 4.64

Return reported IC50 for target or system Histone deacetylase 1 (Homo sapiens), item Cc1ccc2c(c1)c1c(n2Cc2ccc(C(=O)NO)cc2)CCN(C)C1 .
2.07

Provide IC50, system Histone deacetylase 1 (Homo sapiens), entry O=C(NO)c1ccc(Cn2c3c(c4ccccc42)CN(Cc2ccccc2)CC3)cc1
10.3

Report IC50 under test system Histone deacetylase 1 (Homo sapiens) for NC(=O)CN1CCc2c(c3ccccc3n2Cc2ccc(C(=O)NO)cc2)C1 .
3.98

Report measured IC50 on Histone deacetylase 1 (Homo sapiens); entry: O=C(NO)c1ccc(Cn2c3c(c4ccccc42)CN(Cc2ccncc2)CC3)cc1
2.74
